A collection of binders and their measured koff
- measured.on: T1, recombinant human PD-L2 (human PD-L2 antigen) (human, UniProt Q9BQ51 20-219, limits assumed)
- T1 construct: The Biacore analyte and the ELISA antigen are only called human PD-L2 antigen / recombinant hPD-L2; Whole entry named; also called hPD-L2; recombinant hPD-L2
- T1 sequence (looked up): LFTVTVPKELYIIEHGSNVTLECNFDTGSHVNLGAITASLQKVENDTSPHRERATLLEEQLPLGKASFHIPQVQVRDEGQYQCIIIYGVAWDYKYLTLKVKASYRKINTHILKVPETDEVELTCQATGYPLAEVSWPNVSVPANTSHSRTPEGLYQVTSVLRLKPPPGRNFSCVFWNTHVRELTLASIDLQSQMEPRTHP
- assay.comment: SPR (Biacore 8K), single cycle kinetics, antibody in culture supernatant, human PD-L2 antigen
Report as a plain number; the unit s⁻¹ is understood.

binder	koff [s⁻¹]
VH7/VK2 (antibody, V domains shown, hIgG1 backbone, CHO expressed) VH: QVQLVQSGAELKKPGSSVKVSCKASGYAFSNYFIEWVKQPPGKGLEWIGLNIPGSGGSNYAEKFKGRATITADKSTSTAYMELSSLRSEDTAVYYCARRRLPPDWYFDVWGQGTTVTVSS VL: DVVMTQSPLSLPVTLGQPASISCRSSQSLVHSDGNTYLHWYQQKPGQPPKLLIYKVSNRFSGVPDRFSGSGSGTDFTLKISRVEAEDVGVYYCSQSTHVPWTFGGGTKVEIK	0.000118

Turning now to a further binder:
Data point: VH7/VK1 (antibody, V domains shown, hIgG1 backbone, CHO expressed) VH: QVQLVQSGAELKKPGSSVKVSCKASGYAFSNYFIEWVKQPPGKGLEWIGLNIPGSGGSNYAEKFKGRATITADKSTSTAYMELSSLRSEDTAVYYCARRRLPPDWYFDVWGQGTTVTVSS VL: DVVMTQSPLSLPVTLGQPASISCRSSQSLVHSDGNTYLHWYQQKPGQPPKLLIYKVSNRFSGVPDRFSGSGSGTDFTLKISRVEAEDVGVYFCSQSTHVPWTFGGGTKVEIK ; koff = 0.000113
